Measurement Notes: MT4 Cell Antiviral Assay: Antiviral HIV activity and compound-induced cytotoxicity were measured in parallel by means of a propidium iodide based procedure in the human T-cell lymphotropic virus transformed cell line MT4. Aliquots of the test compounds were serially diluted in medium (RPMI 1640, 10% fetal calf serum (FCS), and gentamycin) in 96-well plates (Costar 3598) using a Cetus Pro/Pette. …
Stated Conditions: MT4, 10 min
Description: MT4 Cell Antiviral Assay: Antiviral HIV activity and compound-induced cytotoxicity were measured in parallel by means of a propidium iodide based procedure in the human T-cell lymphotropic virus transformed cell line MT4. […] Exponentially growing MT4 cells were harvested and centrifuged at 1000 rpm for 10 min in a Jouan centrifuge (model CR 4 12). […] Cell infection was allowed to proceed for 1 hr at 37° C. in a tissue culture incubator with humidified 5% CO2 atmosphere. After the 1 hr incubation the virus/cell suspensions were diluted 6-fold with fresh medium, and 125 μl of the cell suspension was added to each well of the plate containing pre-diluted compound. Plates were then placed in a tissue culture incubator with humidified 5% CO2 for 5 days. […] After thorough mixing with a Costar multitip pipetter, 60 μl of the mixture was transferred to filter-bottomed 96-well plates. The plates were analyzed in an automated assay instrument (Screen Machine, Idexx Laboratories). The control and standard used was 3′-azido-3′-deoxythymidine tested over a concentration range of 0.01 to 1 μM in every assay. […] The assay makes use of a propidium iodide dye to estimate the DNA content of each well.For MTS readout, 20 μl CellTiter 96 AQ One Solution reagent (Promega #G3582) was added to each well.
Property Label: EC50 (nM)
Respond numerically; units are nM and should not be typed.

Q) Please give measured EC50 of the following entry: CC(C)NC[C@H](O)[C@@]12CC[C@]3(C)[C@H](CC[C@@H]4[C@@]5(C)CC[C@H](OC(=O)CC(C)(C)C(=O)O)C(C)(C)[C@@H]5CC[C@]43C)C1=C(C(C)C)C(=O)C2
A) 31.5

Ref: ChEMBL document CHEMBL5725581
